Data origin: ChEMBL document CHEMBL4371014

Consider the following compounds and their measured IC50 readings.
- Experimental System: Sodium- and chloride-dependent GABA transporter 1 (Homo sapiens)
- Sequence (P30531 whole entry): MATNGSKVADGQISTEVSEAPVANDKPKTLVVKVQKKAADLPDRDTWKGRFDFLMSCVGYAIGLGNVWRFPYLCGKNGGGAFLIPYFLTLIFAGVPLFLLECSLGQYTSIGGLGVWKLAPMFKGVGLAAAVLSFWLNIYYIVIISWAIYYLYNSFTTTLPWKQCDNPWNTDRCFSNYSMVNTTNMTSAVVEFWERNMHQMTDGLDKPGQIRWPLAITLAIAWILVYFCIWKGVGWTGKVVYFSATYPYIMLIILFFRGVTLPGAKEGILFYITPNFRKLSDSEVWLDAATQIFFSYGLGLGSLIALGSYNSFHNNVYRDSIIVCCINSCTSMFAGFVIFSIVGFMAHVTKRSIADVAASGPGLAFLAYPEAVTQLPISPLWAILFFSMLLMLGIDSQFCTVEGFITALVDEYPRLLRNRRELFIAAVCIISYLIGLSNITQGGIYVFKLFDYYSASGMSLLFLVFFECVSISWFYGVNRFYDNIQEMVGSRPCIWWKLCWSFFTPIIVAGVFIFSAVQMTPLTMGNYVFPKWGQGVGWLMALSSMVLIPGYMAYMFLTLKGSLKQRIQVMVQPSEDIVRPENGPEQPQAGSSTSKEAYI
- Assay Protocol: Inhibition of NO711 binding to human GAT1 expressed in COS cell membranes preincubated for 25 mins by LC-ESI-MS/MS analysis

O=C(O)[C@H]1CNC[C@@H](CN/N=C/c2ccc(-c3cccc4ccccc34)o2)C1 (racemic)    42.7 µM
O=C(O)[C@H]1CNC[C@@H](CN/N=C/c2ccc(-c3ccc(C(F)(F)F)cc3Cl)o2)C1 (racemic)    30.9 to 135 µM
O=C(O)[C@H]1CNC[C@@H](CN/N=C/c2ccc(-c3cc(C(F)(F)F)cc(C(F)(F)F)c3)o2)C1 (racemic)    135 µM
O=C(O)[C@H]1CNC[C@@H](CCN/N=C/c2ccc(-c3ccc(C(F)(F)F)cc3Cl)o2)C1 (racemic)    30.9 to 135 µM
O=C(O)[C@H]1CNC[C@@H](CCN/N=C/c2ccc(-c3ccc(Cl)cc3Cl)o2)C1 (racemic)    30.9 to 135 µM

Then there is this compound:
Please give the measured IC50 for this compound: O=C(O)[C@H]1CNC[C@@H](CN/N=C/c2ccc(-c3cc(C(F)(F)F)ccc3Cl)o2)C1 (racemic)
30.9 to 135 µM
